This document collects IC50 values reported for E3 ubiquitin-protein ligase CBL (Homo sapiens).
Give just the number in nM; leave the unit off.

>>> reported_value("Cn1cnnc1[C@]1(c2cc(NC3CCCC3)nc(N3Cc4c(cc(CNC5(C)CCC5)cc4C(F)(F)F)C3=O)c2)C[C@H](C)C1 [US12187709, Compound 53]")
6.3

Read the next record carefully.
Q: Please report the recorded IC50 for Cn1cnnc1[C@]1(c2cc(NC3CCCCC3)nc(N3Cc4c(cc(CNC5(C)CCC5)cc4C(F)(F)F)C3=O)c2)C[C@@H](C)C1 [US12187709, Compound 50] .
A: 53

----------
- Measured On: E3 ubiquitin-protein ligase CBL-B (Homo sapiens)
- Sequence (Q13191 whole entry): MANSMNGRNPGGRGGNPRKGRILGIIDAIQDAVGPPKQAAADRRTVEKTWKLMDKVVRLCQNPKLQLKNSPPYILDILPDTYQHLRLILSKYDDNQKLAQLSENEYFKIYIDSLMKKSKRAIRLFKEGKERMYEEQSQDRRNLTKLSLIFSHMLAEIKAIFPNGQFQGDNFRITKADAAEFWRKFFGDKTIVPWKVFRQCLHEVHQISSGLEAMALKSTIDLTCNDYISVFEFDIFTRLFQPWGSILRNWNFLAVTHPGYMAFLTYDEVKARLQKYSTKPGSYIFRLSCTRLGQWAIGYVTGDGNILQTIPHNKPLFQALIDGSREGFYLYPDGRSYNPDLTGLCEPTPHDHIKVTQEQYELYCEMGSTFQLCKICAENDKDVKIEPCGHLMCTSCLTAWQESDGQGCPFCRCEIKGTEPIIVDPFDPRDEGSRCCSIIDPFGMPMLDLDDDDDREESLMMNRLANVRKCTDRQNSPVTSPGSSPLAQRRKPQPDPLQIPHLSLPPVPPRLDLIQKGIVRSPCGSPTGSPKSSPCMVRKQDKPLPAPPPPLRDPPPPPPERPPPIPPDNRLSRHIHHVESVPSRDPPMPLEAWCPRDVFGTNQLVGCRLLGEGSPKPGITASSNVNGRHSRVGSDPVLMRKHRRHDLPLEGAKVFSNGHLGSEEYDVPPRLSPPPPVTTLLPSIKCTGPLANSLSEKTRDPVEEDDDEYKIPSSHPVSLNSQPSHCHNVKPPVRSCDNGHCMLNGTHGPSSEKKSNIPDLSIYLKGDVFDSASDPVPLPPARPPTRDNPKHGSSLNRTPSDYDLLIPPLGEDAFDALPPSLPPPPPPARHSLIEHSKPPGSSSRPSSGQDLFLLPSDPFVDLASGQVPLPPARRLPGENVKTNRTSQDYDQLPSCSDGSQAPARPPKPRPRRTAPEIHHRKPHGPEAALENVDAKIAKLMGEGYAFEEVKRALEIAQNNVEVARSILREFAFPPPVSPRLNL
Recorded Endpoint: pKd
Recall that pKd is obtained by taking minus log10 of the concentration measured in molar.

Q: Please report the recorded pKd for Cn1cnnc1[C@]1(c2cc(NC3CCCCC3)nc(N3Cc4c(cc(CNC5(C)CCC5)cc4C(F)(F)F)C3=O)c2)C[C@@H](C)C1 .
A: 8.19
